Record form. Attribute: sfGFP reporter fluorescence. Fill in for each entry.
B1: library; numbered along this chain (parent)
chain: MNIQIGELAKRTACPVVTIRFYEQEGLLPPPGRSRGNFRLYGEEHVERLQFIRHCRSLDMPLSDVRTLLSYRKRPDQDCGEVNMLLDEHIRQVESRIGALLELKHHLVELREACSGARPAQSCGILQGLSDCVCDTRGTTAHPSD

Variants of: B1
Experiment: sfGFP reporter fluorescence (15 h) (µM FITC); higher = stronger transcriptional activation
Conditions: library round: Round 0; ligand: 1 µM Pb
Give your answer as a number; write no unit.

Q: Return sfGFP reporter fluorescence (reported value) for this variant: L28R
A: 0.063

Q: Return sfGFP reporter fluorescence (reported value) for this variant: L27Y
A: 0.0792

Q: Return sfGFP reporter fluorescence (reported value) for this variant: F21M
A: 0.0619

Q: Return sfGFP reporter fluorescence (reported value) for this variant: C123E
A: 0.0588

Q: Return sfGFP reporter fluorescence (reported value) for this variant: P61F
A: 0.0651

Q: Return sfGFP reporter fluorescence (reported value) for this variant: P30K
A: 0.0845

Q: Return sfGFP reporter fluorescence (reported value) for this variant: L27C
A: 0.0641

Q: Return sfGFP reporter fluorescence (reported value) for this variant: L68I
A: 0.059

Q: Return sfGFP reporter fluorescence (reported value) for this variant: R39F
A: 0.0588

Q: Return sfGFP reporter fluorescence (reported value) for this variant: H89T
A: 0.0579

Q: Return sfGFP reporter fluorescence (reported value) for this variant: C123Q
A: 0.0581

Q: Return sfGFP reporter fluorescence (reported value) for this variant: Y41F
A: 0.1

Q: Return sfGFP reporter fluorescence (reported value) for this variant: L62T
A: 0.0674

Q: Return sfGFP reporter fluorescence (reported value) for this variant: C114P
A: 0.0563

Q: Return sfGFP reporter fluorescence (reported value) for this variant: F21G
A: 0.0577

Q: Return sfGFP reporter fluorescence (reported value) for this variant: E109W
A: 0.0872

Q: Return sfGFP reporter fluorescence (reported value) for this variant: N83Y
A: 0.0762

Q: Return sfGFP reporter fluorescence (reported value) for this variant: E109K
A: 0.0949

Q: Return sfGFP reporter fluorescence (reported value) for this variant: K104V L107A
A: 0.817

Q: Return sfGFP reporter fluorescence (reported value) for this variant: T67A
A: 0.0709

Q: Return sfGFP reporter fluorescence (reported value) for this variant: M84A
A: 0.0687

Q: Return sfGFP reporter fluorescence (reported value) for this variant: L126Y
A: 0.0594

Q: Return sfGFP reporter fluorescence (reported value) for this variant: L107K
A: 0.0586

Q: Return sfGFP reporter fluorescence (reported value) for this variant: P61N D64K K104V G128M
A: 1.59

Q: Return sfGFP reporter fluorescence (reported value) for this variant: C123A
A: 0.0553

Q: Return sfGFP reporter fluorescence (reported value) for this variant: L110C
A: 0.0577

Q: Return sfGFP reporter fluorescence (reported value) for this variant: K104T
A: 0.0925

Q: Return sfGFP reporter fluorescence (reported value) for this variant: S115A
A: 0.0663

Q: Return sfGFP reporter fluorescence (reported value) for this variant: R39I
A: 0.0566

Q: Return sfGFP reporter fluorescence (reported value) for this variant: G26A
A: 0.0724

Q: Return sfGFP reporter fluorescence (reported value) for this variant: L126C
A: 0.0572

Q: Return sfGFP reporter fluorescence (reported value) for this variant: M60L L107C G128I
A: 3.42

Q: Return sfGFP reporter fluorescence (reported value) for this variant: P61E
A: 0.0991

Q: Return sfGFP reporter fluorescence (reported value) for this variant: P143Y
A: 0.0834

Q: Return sfGFP reporter fluorescence (reported value) for this variant: R20I
A: 0.0629

Q: Return sfGFP reporter fluorescence (reported value) for this variant: C114W
A: 0.0592

Q: Return sfGFP reporter fluorescence (reported value) for this variant: I97M
A: 0.057

Q: Return sfGFP reporter fluorescence (reported value) for this variant: Y41A
A: 0.0605

Q: Return sfGFP reporter fluorescence (reported value) for this variant: D135N
A: 0.0847

Q: Return sfGFP reporter fluorescence (reported value) for this variant: G128A
A: 0.211

Q: Return sfGFP reporter fluorescence (reported value) for this variant: L28D
A: 0.0632

Q: Return sfGFP reporter fluorescence (reported value) for this variant: C123F
A: 0.0577

Q: Return sfGFP reporter fluorescence (reported value) for this variant: C114F
A: 0.0577

Q: Return sfGFP reporter fluorescence (reported value) for this variant: C123N
A: 0.0561

Q: Return sfGFP reporter fluorescence (reported value) for this variant: E112L
A: 0.0867

Q: Return sfGFP reporter fluorescence (reported value) for this variant: I90W
A: 0.0619

Q: Return sfGFP reporter fluorescence (reported value) for this variant: D64Y
A: 1.75

Q: Return sfGFP reporter fluorescence (reported value) for this variant: I90P
A: 0.0616

Q: Return sfGFP reporter fluorescence (reported value) for this variant: G6I
A: 0.0585

Q: Return sfGFP reporter fluorescence (reported value) for this variant: I90V
A: 0.064

Q: Return sfGFP reporter fluorescence (reported value) for this variant: E7I
A: 0.0759

Q: Return sfGFP reporter fluorescence (reported value) for this variant: V16C
A: 0.0861

Q: Return sfGFP reporter fluorescence (reported value) for this variant: E43P
A: 0.0674

Q: Return sfGFP reporter fluorescence (reported value) for this variant: C134H
A: 0.0913

Q: Return sfGFP reporter fluorescence (reported value) for this variant: L58F
A: 0.0731

Q: Return sfGFP reporter fluorescence (reported value) for this variant: Q50A
A: 0.0891

Q: Return sfGFP reporter fluorescence (reported value) for this variant: I125Y
A: 0.0588

Q: Return sfGFP reporter fluorescence (reported value) for this variant: V46I
A: 0.0711

Q: Return sfGFP reporter fluorescence (reported value) for this variant: C123L
A: 0.0566

Q: Return sfGFP reporter fluorescence (reported value) for this variant: R20Q
A: 0.0607

Q: Return sfGFP reporter fluorescence (reported value) for this variant: L27S
A: 0.0621

Q: Return sfGFP reporter fluorescence (reported value) for this variant: R39M
A: 0.0616

Q: Return sfGFP reporter fluorescence (reported value) for this variant: P15Y
A: 0.0684

Q: Return sfGFP reporter fluorescence (reported value) for this variant: R33Q
A: 0.0612

Q: Return sfGFP reporter fluorescence (reported value) for this variant: E7V
A: 0.0865

Q: Return sfGFP reporter fluorescence (reported value) for this variant: G36S
A: 0.119

Q: Return sfGFP reporter fluorescence (reported value) for this variant: L68V
A: 0.0632

Q: Return sfGFP reporter fluorescence (reported value) for this variant: F21N
A: 0.0605

Q: Return sfGFP reporter fluorescence (reported value) for this variant: P61R
A: 0.123

Q: Return sfGFP reporter fluorescence (reported value) for this variant: R20S
A: 0.061

Q: Return sfGFP reporter fluorescence (reported value) for this variant: P143L
A: 0.0782

Q: Return sfGFP reporter fluorescence (reported value) for this variant: R11A
A: 0.0709

Q: Return sfGFP reporter fluorescence (reported value) for this variant: R20F
A: 0.0585

Q: Return sfGFP reporter fluorescence (reported value) for this variant: L58V
A: 0.0568

Q: Return sfGFP reporter fluorescence (reported value) for this variant: L126N
A: 0.0588

Q: Return sfGFP reporter fluorescence (reported value) for this variant: D64K K104V L107C G128M
A: 3.98

Q: Return sfGFP reporter fluorescence (reported value) for this variant: V65A
A: 0.0678

Q: Return sfGFP reporter fluorescence (reported value) for this variant: L129R
A: 0.059

Q: Return sfGFP reporter fluorescence (reported value) for this variant: M60L L107C
A: 1.43

Q: Return sfGFP reporter fluorescence (reported value) for this variant: G6L
A: 0.0616

Q: Return sfGFP reporter fluorescence (reported value) for this variant: R39Y
A: 0.0605

Q: Return sfGFP reporter fluorescence (reported value) for this variant: C114D
A: 0.0588

Q: Return sfGFP reporter fluorescence (reported value) for this variant: R137A
A: 0.0652

Q: Return sfGFP reporter fluorescence (reported value) for this variant: I125N
A: 0.0581

Q: Return sfGFP reporter fluorescence (reported value) for this variant: V16M
A: 0.099

Q: Return sfGFP reporter fluorescence (reported value) for this variant: L126V
A: 0.0581

Q: Return sfGFP reporter fluorescence (reported value) for this variant: M60L P61N G128M
A: 1.91

Q: Return sfGFP reporter fluorescence (reported value) for this variant: P30C
A: 0.0744

Q: Return sfGFP reporter fluorescence (reported value) for this variant: L110V
A: 0.0663

Q: Return sfGFP reporter fluorescence (reported value) for this variant: S122A
A: 0.0762

Q: Return sfGFP reporter fluorescence (reported value) for this variant: E109N
A: 0.0845

Values were extracted from the supplement of paper PMC12783771.
